System: TK-10 renal
Assay: NCI-60 one-dose screen, 48 h
Conditions: 10 µM unless noted
This is part of a sample that, as a whole, favours compounds with a hit. Of some 83,000 tested, about 20% had one in any assay. Activity calls are given as the source filed them. Rule for the calls: active = growth percent below 10; inactive = the rest.
Bench note: report the call from 1 (active), -1 (inactive)

molecule: Cc1ccc(C[As+](c2ccccc2)(c2ccccc2)c2ccccc2)cc1
label_value: -1

Prompt: Lab log entry: "CC(C)OC(=S)[S-].[Au+].c1ccc([PH+](c2ccccc2)c2ccccc2)cc1" — outcome as called in the assay?
Response: 1

Prompt: Lab log entry: CC12CC[C@H](O)C=C1/C(=N/O)CC1C2CCC2(C)C1CC[C@@H]2O (some centres undefined) — outcome as called in the assay?
Response: -1

Prompt: Lab log entry: "Oc1ccc(O)c2c1C1(Cl)C(Cl)=C(Cl)C2(Cl)C1(Cl)Cl" — outcome as called in the assay?
Response: -1

Prompt: Lab log entry: COc1ccc(C(=O)c2ccc([As]=O)cc2)cc1 (centres undefined) — outcome as called in the assay?
Response: 1

Prompt: Lab log entry: O=C1C(Cc2ccccc2)N=C(c2cccc(O)c2)c2ccc(Cl)cc2N1CC1CC1 (centres undefined) — outcome as called in the assay?
Response: -1

Prompt: Lab log entry: COc1cccc2c1C(=O)c1c(O)c3c(c(O)c1C2=O)CC(O)(/C(C)=N/NC(=O)CCC(=O)N/N=C(\C)C1(O)Cc2c(O)c4c(c(O)c2C(OC2CC(N)C(O)C(C)O2)C1)C(=O)c1c(OC)cccc1C4=O)CC3OC1CC(N)C(O)C(C)O1 (centres undefined) — outcome as called in the assay?
Response: 1

Prompt: Lab log entry: CC(N)Cc1ccc(O)cc1 (centres undefined) — outcome as called in the assay?
Response: -1

Prompt: Lab log entry: "CC(/C=N/N=C(N)N)=N/N=C(N)N" — outcome as called in the assay?
Response: -1

Cited source: PubChem BioAssay (NCI)
